Ref: patent US20120035224A1

Measured Leaf mass eaten by the larvae vs. control, Time/43 h accompanies every entry in the list below.
System: cabbage white, Mamestra brassicae larvae
Test: Antifeedant activity on cabbage leaf discs, no-choice test
Format: in vivo
Details: 100 μg/cm^2, 43 h after treatment
QUANTITY: Leaf mass eaten by the larvae vs. control, Time/43 h (%)

>  <COMPOUND>
C=C(C)[C@@H]1CC[C@]2(C(=O)O)CC[C@]3(C)C(CCC4[C@@]5(C)CC[C@H](O)C(C)(C)C5CC[C@]43C)C12 (stereo partly shown)

>  <MEASUREMENT_TARGET>
cabbage white, Mamestra brassicae larvae

>  <UNIT_SYMBOL>
%

>  <REPORTED_MEASUREMENT>
67

$$$$
>  <COMPOUND>
C=C(C)[C@@H]1CC[C@]2(C(=O)O)CC[C@]3(C)C(CCC4[C@@]5(C)CCC(=O)C(C)(C)C5CC[C@]43C)C12 (stereo partly shown)

>  <MEASUREMENT_TARGET>
cabbage white, Mamestra brassicae larvae

>  <UNIT_SYMBOL>
%

>  <REPORTED_MEASUREMENT>
95

$$$$

###

Tested on: Deroceras agreste (field snails) and Deroceras reticulatum (false field snails)
Assay: Effect on feeding behaviour of snails, half-treated leaf discs
Assay type: in vivo
Settings: treated half of leaf disc, 36 hours, 100 μg/cm^2 in acetone
Measured Percentage of the leaf half treated with the test substance vs. total mass eaten values are reported for all entries that follow.
QUANTITY: Percentage of the leaf half treated with the test substance vs. total mass eaten (%)

>  <COMPOUND>
C=C(C)[C@@H]1CC[C@]2(CO)CC[C@]3(C)[C@H](CC[C@@H]4[C@@]5(C)CC[C@H](O)C(C)(C)[C@@H]5CC[C@]43C)[C@@H]12

>  <REPORTED_MEASUREMENT>
22.5

$$$$
>  <COMPOUND>
C=C(C)[C@@H]1CC[C@]2(C(=O)O)CC[C@]3(C)C(CCC4[C@@]5(C)CCC(=O)C(C)(C)C5CC[C@]43C)C12 (stereo partly shown)

>  <REPORTED_MEASUREMENT>
25.8

$$$$
>  <COMPOUND>
C=C(C)[C@@H]1CC[C@]2(C(=O)O)CC[C@]3(C)C(CCC4[C@@]5(C)CC[C@H](O)C(C)(C)C5CC[C@]43C)C12 (stereo partly shown)

>  <REPORTED_MEASUREMENT>
37.6

$$$$
>  <COMPOUND>
C=C(C)[C@@H]1CC[C@]2(COC(=O)CO[C@H]3C[C@@H](C)CC[C@@H]3C(C)C)CC[C@]3(C)C(CCC4[C@@]5(C)CC[C@H](O)C(C)(C)C5CC[C@]43C)C12 (stereo partly shown)

>  <REPORTED_MEASUREMENT>
36.6

$$$$
